Every entry's value here was drawn from patent US12121614B2.

- assay.text: Phase I clinical trial, food effect part: pharmacokinetics of C21 fed vs fasted
- Format: in vivo, human
- measurement.conditions: both sexes, human, plasma, po, 75 mg, single oral dose 75 mg, Fasted, N = 9; read-out: t1/2, Geometric Mean (converted)
endpoint.name: half-life (min)
Write down the numeric answer in min and omit the unit.

Quick note, half-life for CCCCOC(=O)NS(=O)(=O)c1sc(CC(C)C)cc1-c1ccc(Cn2ccnc2)cc1 landed at 34.1

###

- assay.text: Phase I clinical trial, food effect part: pharmacokinetics of C21 fed vs fasted
- Assay type: in vivo, human
- measurement.conditions: both sexes, human, plasma, po, 75 mg, single oral dose 75 mg, Fed, N = 10; read-out: AUC(0-inf), Arithmetic Mean
endpoint.name: AUC(0-inf) (ng·h/mL)
Only the number, expressed in ng·h/mL, is required.

The molecule listed as CCCCOC(=O)NS(=O)(=O)c1sc(CC(C)C)cc1-c1ccc(Cn2ccnc2)cc1 has a reported AUC(0-inf) of 792
